Tested on: LTK
run-conditions: concentration: 1 μM, replicates: in singlicate; n = 1;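 also: KINOMEscan kinase panel screen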
Would you mind telling me the reported %Inh of each entry?
One number for each entry, in %.

Cn1cncc1-c1ccc2ncnc(Nc3ccc(OCc4ccccc4)cc3)c2c1 [GW320571] : 11
O=C(Nc1n[nH]c2nc(-c3nccs3)c(Br)cc12)C1CC1 [SB-742251] : 0

[in] I am curious: what %Inh value has been reported for O=c1cc(N2CCOCC2)nc2n(Cc3cccc(Cl)c3Cl)ccn12 [GSK2286295] ?
[out] 0

* * *

System: MAST1
run-conditions: concentration: 1 μM, replicates: in singlicate; n = 1
Label 1.0 for high-side %Inh (at or above 20%) and 0.0 for low-side %Inh (below it).

Cn1ccc2ncnc(Oc3cccc(C(=O)Nc4ccccc4)c3)c21 : 1.0

[in] Hi team, for Cc1ccccc1-n1cnc2c(N)ncnc21 , is the recorded %Inh at or above 20%?
[out] 0.0

[in] Also, CC1=C(C(=O)Nc2cc3cn[nH]c3cc2F)C(c2ccc(C(F)(F)F)cc2)CC(=O)N1 (stereo not drawn) please.
[out] 0.0

[in] Also, CCn1c(-c2cccnc2O)nc2cnccc21 please.
[out] 0.0

[in] Also, COc1cccc(NC(=O)NC2CCN(c3ccnc(Nc4ccc(F)cc4)n3)C2)c1 (stereo not drawn) please.
[out] 0.0
